assayTarget: PPAR alpha (Homo sapiens)
Sequence (Q07869 239-466 limits assumed): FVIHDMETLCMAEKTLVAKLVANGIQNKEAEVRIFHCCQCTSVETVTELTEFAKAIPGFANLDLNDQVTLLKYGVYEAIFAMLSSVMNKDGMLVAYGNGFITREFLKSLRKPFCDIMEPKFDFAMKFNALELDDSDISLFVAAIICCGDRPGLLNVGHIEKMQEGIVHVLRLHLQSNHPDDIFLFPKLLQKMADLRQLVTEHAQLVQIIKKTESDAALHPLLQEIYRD
test: Transfection assay for PPAR receptors (GAL4-LBD luciferase reporter in HEK293 cells), PPAR alpha
testParameters: HEK293 cells co-transfected with PPAR LBD-GAL4 and UAS-luciferase; 18-24 hrs treatment
testReadout: EC50 (nM)
Write it as a number; the unit nM goes unstated.

Identify the measured EC50 of C=C(COc1ccc(OC(F)(F)F)cc1)CSc1ccc(OC(C)(C)C(=O)O)c(C)c1 for PPAR alpha (Homo sapiens). 900

Every entry's value here was drawn from patent US7875744B2.
